biological target: Cyclin-dependent kinase 2/G1/S-specific cyclin-E1 (Homo sapiens); assay: CDK2/Cyclin E and CDK4/Cyclin D1 Kinase Assay; details: pH 7.5; 30 °C
measured.attribute: IC50 (nM)

>>> test_value("C[C@@H](Nc1nc(N[C@H]2CC[C@H](N)CC2)nc2c1ncn2C1CCCC1)c1ccccc1 [2,6,9-trisubstituted adenine derivative]")
720

====

target: Cyclin-dependent kinase 4/G1/S-specific cyclin-D1 (Homo sapiens, UniProt P11802); test: CDK2/Cyclin E and CDK4/Cyclin D1 Kinase Assay; conditions: pH 7.5; 30 °C
Sequence (P11802 whole entry): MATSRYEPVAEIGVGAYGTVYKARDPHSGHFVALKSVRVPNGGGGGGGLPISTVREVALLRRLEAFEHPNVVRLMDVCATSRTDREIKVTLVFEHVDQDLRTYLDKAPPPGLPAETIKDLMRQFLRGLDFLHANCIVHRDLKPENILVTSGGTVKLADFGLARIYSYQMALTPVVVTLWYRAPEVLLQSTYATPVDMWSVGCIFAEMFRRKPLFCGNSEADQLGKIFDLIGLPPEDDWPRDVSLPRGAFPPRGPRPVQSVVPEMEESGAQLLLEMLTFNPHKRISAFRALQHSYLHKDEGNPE
Sequence (P24385 whole entry, further chain): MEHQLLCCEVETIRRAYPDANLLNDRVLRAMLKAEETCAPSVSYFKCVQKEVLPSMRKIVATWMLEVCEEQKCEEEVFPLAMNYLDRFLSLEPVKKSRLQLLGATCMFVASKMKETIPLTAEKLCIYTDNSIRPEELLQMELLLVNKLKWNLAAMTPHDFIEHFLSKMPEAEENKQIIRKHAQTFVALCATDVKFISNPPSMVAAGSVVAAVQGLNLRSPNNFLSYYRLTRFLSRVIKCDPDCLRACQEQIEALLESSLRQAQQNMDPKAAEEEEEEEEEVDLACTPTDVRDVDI
pIC50: −log10 of the molar value.
measured.attribute: pIC50

>>> test_value("C[C@@H](Nc1nc(N[C@H]2CC[C@H](N)CC2)nc2c1ncn2C1CCCC1)c1ccccc1")
5.06
